# System: Candida parapsilosis
# measurementDescription: Antifungal activity against Candida parapsilosis GC 3075
# Format: functional
# testParameters: Lodderomyces parapsilosis
Listed molecules paired with reported MIC
Could you give me the number in µg/mL? Just the number is fine.

Please review the following examples before continuing.
molecule	endpoint	resultUnits	measured
C\C(=C/C=C/C=C/CC/C=C/C(C)C(O)C(C)C(O)/C=C/C=C/C=C/C=C/C=C/C=C/CC(OS(=O)(=O)O)C(C)C(=O)CC(O)CC(O)/C=C/CC(O)CC(O)CC(O)/C=C/CC(O)CC(O)/C=C/CC(O)CC(O)CCCN)C(=O)O (stereo not given) [MEDIOMYCIN A]	MIC	µg/mL	16
C\C(=C/C=C/C=C/CC/C=C/C(C)C(O)C(C)C(O)/C=C/C=C/C=C/C=C/C=C/C=C/CC(OS(=O)(=O)O)C(C)C(=O)CC(O)CC(O)/C=C/CC(O)CC(O)CC(O)/C=C/CC(O)CC(O)/C=C/CC(O)CC(O)CCCNC(=N)N)C(=O)O (stereo not given) [CLETHRAMYCIN]	MIC	µg/mL	16
C[C@@H]1[C@H](O)[C@@H](C)/C=C/C=C/C=C/C=C/C=C/C=C/C=C/[C@H](O[C@@H]2O[C@H](C)[C@@H](O)[C@H](N)[C@@H]2O)C[C@@H]2O[C@](O)(C[C@@H](O)C[C@@H](O)[C@H](O)CC[C@@H](O)C[C@@H](O)CC(=O)O[C@H]1C)C[C@H](O)[C@H]2C(=O)O [AMPHOTERICIN B]	MIC	µg/mL	0.5

Return reported MIC; argument: C\C(=C/C=C/C=C/CC/C=C/C(C)C(O)C(C)C(O)/C=C/C=C/C=C/C=C/C=C/C=C/CC(O)C(C)C(=O)CC(O)CC(O)/C=C/CC(O)CC(O)CC(O)/C=C/CC(O)CC(O)/C=C/CC(O)CC(O)CCCN)C(=O)O (stereo not given) [MEDIOMYCIN B] 4
